SYSTEM: p38/MK2 protein–protein interaction (VF-p38α / GST-MK2) (Homo sapiens, UniProt Q16539)
Sequence (Q16539 2-360 limits assumed): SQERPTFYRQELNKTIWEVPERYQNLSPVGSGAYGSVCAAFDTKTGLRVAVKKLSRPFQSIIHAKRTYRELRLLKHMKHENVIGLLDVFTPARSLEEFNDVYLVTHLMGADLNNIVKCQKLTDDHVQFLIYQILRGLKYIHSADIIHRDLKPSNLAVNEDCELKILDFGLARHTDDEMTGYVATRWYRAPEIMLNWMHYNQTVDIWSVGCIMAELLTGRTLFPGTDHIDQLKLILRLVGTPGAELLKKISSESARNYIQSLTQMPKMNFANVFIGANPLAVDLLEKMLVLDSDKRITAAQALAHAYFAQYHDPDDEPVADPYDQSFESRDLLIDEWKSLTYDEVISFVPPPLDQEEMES
ASSAY_INFO: primary screen, percent of control activity; higher = less effect of the substance
Parameters: species or system HEK293T cell lysate transfected with VF-p38α and GST-MK2; unclear (methods say 'quintuplet replicates')
Hit rate of the full screen: of about 1,900 compounds, about 50 (3%) showed an effect of 50% or more. The sample holds strong results, similar compounds and a random draw of the others, so the mix is not that of the screen.
MEASURED_PARAMETER: Pct of control

INSERT INTO results (compound, data_value) VALUES
  ('CCCCCCCCCCCC1=C(O)C(=O)C=C(O)C1=O', '42%'),
  ('NC(=O)Nc1cc(-c2cccc(F)c2)sc1C(=O)NC1CCCNC1 (centres unmarked)', '74.3%'),
  ('CCCCCCCCc1ccc(CCC(N)(CO)CO)cc1.Cl', '203%'),
  ('COc1cc2nc(N3CCN(C(=O)C4CCCO4)CC3)nc(N)c2cc1OC.Cl.O.O (centres unmarked)', '23.3%'),
  ('CC1(C)CCC2=C(O1)c1ccccc1C(=O)C2=O', '102%'),
  ('Cc1ccc(Cl)c(Nc2ccccc2C(=O)[O-])c1Cl.[Na+]', '95.1%'),
  ('COc1ccc(C2C(=O)c3ccccc3C2=O)cc1', '93.2%'),
  ('CC(=O)Nc1nc2c(Oc3cc(-c4ccc(C(F)(F)F)cc4)ncn3)cccc2s1', '108%'),
  ('COc1cc2nc(N3CCN(C(=O)C4COc5ccccc5O4)CC3)nc(N)c2cc1OC.CS(=O)(=O)O (centres unmarked)', '41.5%'),
  ('CNC(=O)c1cc(Oc2ccc(NC(=O)Nc3ccc(Cl)c(C(F)(F)F)c3)cc2)ccn1.Cc1ccc(S(=O)(=O)O)cc1', '69.1%'),
  ('COc1cc2nc(N(C)CCCNC(=O)C3CCCO3)nc(N)c2cc1OC.Cl (centres unmarked)', '17.9%'),
  ('CC(=O)CCCCn1c(=O)c2c(ncn2C)n(C)c1=O', '88.5%'),
  ('COC(=O)Nc1nc2ccc(C(=O)c3cccs3)cc2[nH]1', '97.5%'),
  ('O=C(NCCCNc1nc(Nc2cccc(NC(=O)N3CCCC3)c2)ncc1I)c1cccs1', '105%'),
  ('C[C@@H]1[C@H](O)[C@@H](C)/C=C/C=C/C=C/C=C/C=C/C=C/C=C/[C@H](O[C@@H]2O[C@H](C)[C@@H](O)[C@H](N)[C@@H]2O)C[C@@H]2O[C@](O)(C[C@@H](O)C[C@@H](O)[C@H](O)CC[C@@H](O)C[C@@H](O)CC(=O)O[C@H]1C)C[C@H](O)[C@H]2C(=O)O', '48.7%'),
  ('COc1cccc2c1C(=O)c1c(O)c3c(c(O)c1C2=O)CC(O)(C(=O)CO)CC3OC1CC(N)C(OC2CCCCO2)C(C)O1 (centres unmarked)', '56.6%'),
  ('CC1C=CC=CCCC=CC=CC=CC=CC(OC2OC(C)C(O)C(N)C2O)CC2OC(O)(CC(O)C(O)CCC(O)CC(O)CC(O)CC(=O)OC(C)C(C)C1O)CC(O)C2C(=O)O (centres unmarked)', '94.3%');
